Test: TOR pathway RTG branch CIT2 reporter changes – S. cerevisiae, GFP fusion, multiplex flow cytometry, primary screen (AID 1870);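 further: barcoded CIT2-GFP strain pooled with four other GFP strains with rapamycin as positive control; median GFP fluorescence per well over plate mean of DMSO wells so 100% = DMSO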
Conditions: S. cerevisiae CIT2-GFP expression, 3 h, at 10 µM, stronger effect = higher value
Exercise: for every item that follows, state its recorded percent response of DMSO control.
Write the number in % without appending the unit.

State, in one line, measured percent response of DMSO control of Nc1ccn([C@@H]2O[C@H](CO)[C@@H](O)[C@@H]2O)c(=O)n1
109

Let me know recorded percent response of DMSO control for C[N+]1(C2CCC3CCCC2C3O)CCCCC1 (stereo not drawn) , thanks.
115

# return recorded percent response of DMSO control for entry CN1CCN(CC/C=C2/c3ccccc3Sc3ccc(S(=O)(=O)N(C)C)cc32)CC1
94.5

Read off the recorded percent response of DMSO control for CCOC(=O)C1(Cc2cccc(Cl)c2)CCCN(C2CCN(C(C)=O)CC2)C1 (stereo not drawn)
102

Return value of percent response of DMSO control for input COc1ccc2c3c([nH]c2c1)C1(NCC3)C(=O)Nc2ccccc21 (stereo not drawn) , no commentary.
89.1

Dear colleague, please send me the reported percent response of DMSO control for COc1cc(-c2nnc(-c3cccs3)o2)cc(OC)c1OC when you can.
99.7

Output measured percent response of DMSO control for this item: CC(C)[C@H]1CN(C)CCN1Cc1cn(C)nc1-c1cccc(Cl)c1
98.9

Give reported percent response of DMSO control value for Cc1ccc(S(=O)(=O)N[C@@H](Cc2ccccc2)C(=O)CCl)cc1
92.5

Give me measured percent response of DMSO control, please, for this compound: CC(C)CN1CCN(Cc2cccn2-c2ccccn2)CC1CCO (stereo not drawn)
103

Please give the documented percent response of DMSO control of NS(=O)(=O)c1ccc(CNC(=O)c2cc(-c3ccccc3)nc3ccccc23)cc1
104

Please report the measured percent response of DMSO control for O=C(c1cc2cc(Br)ccc2o1)N1CCCC1
97.6

State its percent response of DMSO control for this compound: COc1ccc(C2NCCC3(O)CCCCC23)c(OC)c1OC (stereo not drawn)
93.9

Name the recorded percent response of DMSO control of the item CC(C)(C)C(=O)NC(=S)NNC(=O)c1ccncc1 in your answer.
101

* * *

Test: calorie-restriction mimetic ROS inhibitors, yeast – validation compound set, pilot screen (AID 2706);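 further: yeast exposed to compound for one week at 30 degrees C before staining; 100% = mean of all compound wells on the same plate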
Details: S. cerevisiae aging, superoxide DHE fluorescence; at 10 µM; stronger effect = lower value
measurement_kind: superoxide response (% of plate) (%)
Reply numerically in %, unit not repeated.

Let me know recorded superoxide response (% of plate) for COc1cc(C(=S)N(C)C)ccc1O , thanks.
92.7

Give the reported superoxide response (% of plate) for this compound. CC(C)C(=O)Nc1c(O)c2ccccc2[nH]c1=O
111

Give superoxide response (% of plate) for CC[N+](C)(C)c1cccc(O)c1
90.1

* * *

Experiment: hit retest on RPL19A-GFP reporter strain – cell-based, S. cerevisiae, flow cytometry, cherry picks, mother/daughter gates, confirmation (AID 2270)
Conditions: 3 h, measured here: mother cell gate, at 10 µM, stronger effect = lower value, 100 = same GFP as DMSO wells
Provide the recorded GFP response vs DMSO for the entries that follow.
Just the number in %, nothing appended.

Quickly give me recorded GFP response vs DMSO for Cc1ccc2[nH]c3c(c2c1)CCNC3=O
103

Look up and report measured GFP response vs DMSO for this entry: CCCCN(CCCC)CCCOC(=O)c1ccc(N)cc1
98

Please list GFP response vs DMSO recorded for the compound C[n+]1ccccc1/C=N/O
99.6

Note GFP response vs DMSO for the compound shown: CC(=O)Nc1ccc(S(=O)(=O)c2ccc(N)cc2)cc1
104

Give the value of GFP response vs DMSO reported for the following: CN(C)CCN(Cc1ccccc1)c1ccccn1
97.9

State its GFP response vs DMSO: CC(=O)c1ccc(CCCCCCCCCC(=O)O)s1
98.5

Using known records, supply GFP response vs DMSO for C[C@]12CC[C@H]3[C@@H](CCC4=CC(=O)CC[C@@]43C)[C@@H]1CC[C@@H]2C(=O)CO
98.4

Let me know recorded GFP response vs DMSO for Oc1ccc2ccccc2c1/C=N/Nc1nnc(-c2ncc[nH]2)c2ccccc12 , thanks.
108

State its GFP response vs DMSO: O=C(C#Cc1ccccc1)c1cccc([N+](=O)[O-])c1
85.9

Look up and state reported GFP response vs DMSO for CC(=O)Nc1ccccc1O
99.8

Return GFP response vs DMSO (reported value) for this compound: NS(=O)(=O)c1cc2c(cc1C(F)(F)F)NC(Cc1ccccc1)NS2(=O)=O (stereo unspecified)
97.1
